molecular target: E. coli UDP-N-acetylglucosamine enolpyruvoyl transferase, MurA (Escherichia coli)
Sequence (P0A749 whole entry): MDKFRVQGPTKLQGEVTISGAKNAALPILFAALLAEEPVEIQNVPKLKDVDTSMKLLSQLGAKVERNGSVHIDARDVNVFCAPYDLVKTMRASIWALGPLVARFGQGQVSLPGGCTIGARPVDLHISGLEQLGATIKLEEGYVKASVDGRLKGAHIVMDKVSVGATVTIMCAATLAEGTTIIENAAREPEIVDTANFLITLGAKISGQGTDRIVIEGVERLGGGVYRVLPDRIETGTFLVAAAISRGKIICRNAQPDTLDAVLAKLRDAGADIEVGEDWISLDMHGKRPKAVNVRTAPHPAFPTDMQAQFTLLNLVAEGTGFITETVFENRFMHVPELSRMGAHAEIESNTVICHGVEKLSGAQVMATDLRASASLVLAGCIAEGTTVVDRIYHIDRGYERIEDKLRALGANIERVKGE
parameter-measured: IC50 (µM)
Expressed in µM, but write only the number.

CC(C)(C)c1ccc(-c2ccc(C3=C(O)/C(=C/c4ccc(Cl)c(C(F)(F)F)c4)OC3=O)cc2)cc1 [Example 123] :: 42.1

# context switch: different compound, same IC50
Asked: Using the record for O=C1O/C(=C\c2ccc(-c3ccccc3)cc2)C(O)=C1c1cccc(Cl)c1 [Example 69] , report its IC50.
Given back: 21.3

* * *

target: E. coli Uridine-diphosphate-N-acetylmuramoyl-L-alanine: D-glutamate liease, MurD (Escherichia coli)
Sequence (P14900 whole entry): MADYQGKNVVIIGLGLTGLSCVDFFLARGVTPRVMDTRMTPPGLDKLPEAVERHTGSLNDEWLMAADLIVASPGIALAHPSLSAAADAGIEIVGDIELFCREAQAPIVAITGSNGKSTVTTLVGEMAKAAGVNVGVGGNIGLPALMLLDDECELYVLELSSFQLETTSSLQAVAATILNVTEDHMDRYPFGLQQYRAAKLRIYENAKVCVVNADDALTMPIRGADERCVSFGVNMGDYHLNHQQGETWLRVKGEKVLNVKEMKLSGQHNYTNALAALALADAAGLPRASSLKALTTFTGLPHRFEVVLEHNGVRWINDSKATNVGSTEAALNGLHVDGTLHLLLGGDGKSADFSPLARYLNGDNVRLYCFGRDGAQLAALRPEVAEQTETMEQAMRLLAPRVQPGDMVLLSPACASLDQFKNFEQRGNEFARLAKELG
pIC50: −log10 of the molar value.
parameter-measured: pIC50

A selection of reference data follows.
Cc1ccc(C2=C(O)/C(=C/c3ccc(-c4ccc(C)cc4)cc3)OC2=O)cc1 :: 4.34
COC(=O)c1ccc(C2=C(O)/C(=C/c3cccc4ccccc34)OC2=O)cc1 :: < 4.17
N#Cc1cccc(-c2ccc(/C=C3\OC(=O)C(c4ccccc4C#N)=C3O)cc2)c1 :: 4.89

Asked: What does the data say about its pIC50? Entry: `O=C1O/C(=C\c2cccc3ccccc23)C(O)=C1c1ccc2ccccc2c1`
Given back: < 4.16

Asked: Quick one: `O=C1O/C(=C\c2cccc3ccccc23)C(O)=C1c1cc(Cl)cc(Cl)c1`
Given back: 4.35

Asked: Thanks! And `CCOc1ccc(-c2ccc(C3=C(O)/C(=C/c4ccc(Cl)c(C(F)(F)F)c4)OC3=O)cc2)cc1` ?
Given back: < 4.29

From: patent US7495027B2
